test: Selectivity index, ratio of CC50 for human MT4 cells to EC50 for HIV1 3B; type: toxicity, cell-based; details: read-out: Ratio CC50/EC50
measurement label: selectivity ratio

- O=C(CSc1nncnc1-c1ccccc1Cl)Nc1cccnc1Cl: 2240
- Cc1ccc(NC(=O)CSc2nncnc2-c2cccc3ccccc23)c(Br)c1: 852
- O=C(CSc1nncnc1-c1ccccc1Cl)Nc1ccccc1F: 471
- O=C(CSc1nncnc1-c1ccccc1Cl)Nc1ccc(Cl)cc1Cl: 190
- Cc1ccc(NC(=O)CSc2nncnc2-c2ccccc2Cl)c([N+](=O)[O-])c1: 3330
- CCOC(=O)c1ccc(NC(=O)CSc2nncnc2-c2cccc3ccccc23)c(Br)c1: 524
- O=C(CSc1nncnc1-c1ccccc1Cl)Nc1ccccc1: 296
- Cc1ccccc1NC(=O)CSc1nncnc1-c1cccc2ccccc12: 194
- Cc1cn([C@H]2C[C@H](N=[N+]=[N-])[C@@H](CO)O2)c(=O)[nH]c1=O: 8300
- CCOC(=O)c1ccc(NC(=O)CSc2nncnc2-c2cccc3ccccc23)c(Cl)c1: 729
- O=C(CSc1nncnc1-c1cccc2ccccc12)Nc1ccccc1F: 184
- CCOC(=O)c1ccc(NC(=O)CSc2nncnc2-c2ccccc2Cl)c(Br)c1: 302
- CC(=O)c1ccc(NC(=O)CSc2nncnc2-c2cccc3ccccc23)c(Br)c1: 2680
